# Test system: RARb:RXRa (NR concentration 270 nM, RXRa partner concentration 90 nM)
# protocol_description: PBM binding z-score (relative to random genomic background probes); higher = stronger binding; sequences stand for … in GC…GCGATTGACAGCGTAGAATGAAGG
measured_quantity: PBM binding z-score

Below, 2 sequences whose answers are already recorded.
> print(dat)
                       sequence.chain  recorded.result
1  CCGACTGGGGCAAAGGATACCATACTCAGTACGA            0.425
2  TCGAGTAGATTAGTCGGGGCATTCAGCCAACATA           -0.416

With those in mind, consider the next sequence.
Data request: What does the data say about its PBM binding z-score? Entry: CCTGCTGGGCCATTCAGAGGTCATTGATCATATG
Data returned: 3.23
